# TEST PARAMETERS: 298.15 K; 101.33 kPa; Liquid
Answer each item with its documented mass density.
One number for each entry, in kg/m3.

Below are 2 compounds. Give each one its mass density.
1. C[C@H](N)c1ccccc1 [(S)-(-)-αmethylbenzylamine]
2. ClC[C@@H]1CO1

*A*
1. 965.49
2. 1093.5

Below are 2 compounds. Give each one its mass density.
1. C[C@H]1COC(=O)O1 [(S)-4-methyl-1,3-dioxolan-2-one]
2. C[C@H](NCc1ccccc1)c1ccccc1 [(S)-N-benzyl-1-phenylethylamine]

*A*
1: 1199.5; 2: 1007.9

---

# TEST PARAMETERS: 298.15 K; 101.33 kPa; Liquid
READOUT TYPE: mass density (kg/m3)
Answers are plain numbers, in kg/m3.

Some solved cases for reference:
compound="C[C@@H](O)c1ccccc1 [(R)-(+)-1-phenylethanol]" readout_type="mass density" observed_result=1012.4
compound="C[C@H](O)c1ccccc1 [(S)-(-)-1-phenylethanol]" readout_type="mass density" observed_result=1012.3
compound="CCCC(=O)OC[C@H]1CO1 [R(-)-2,3-epoxypropyl butanoate]" readout_type="mass density" observed_result=1036.3
compound="C[C@@H]1COC(=O)O1 [(R)-4-methyl-1,3-dioxolan-2-one]" readout_type="mass density" observed_result=1199.4

# context switch: different compound, same mass density
*Q* Item COC(=O)[C@H](C)CO [(2R)-3-hydroxy-2-methyl-propanoic acid methyl ester] has what recorded mass density?
*A* 1067.5
